molecular target: PI3Kα H1047R (T47D cells) (Homo sapiens, UniProt P42336, H1047R); construct: endogenous in cells; host or cells: T47D cells; experiment: PI3Kα cellular assay: pAKT HTRF in T47D cells after EGF stimulation; assay type: cell-based; details: T47D cells (PI3Kα H1047R), pAKT S473 HTRF, 1 hr compound, 20 ng/ml EGF 10 min
Sequence (P42336 whole entry H1047R): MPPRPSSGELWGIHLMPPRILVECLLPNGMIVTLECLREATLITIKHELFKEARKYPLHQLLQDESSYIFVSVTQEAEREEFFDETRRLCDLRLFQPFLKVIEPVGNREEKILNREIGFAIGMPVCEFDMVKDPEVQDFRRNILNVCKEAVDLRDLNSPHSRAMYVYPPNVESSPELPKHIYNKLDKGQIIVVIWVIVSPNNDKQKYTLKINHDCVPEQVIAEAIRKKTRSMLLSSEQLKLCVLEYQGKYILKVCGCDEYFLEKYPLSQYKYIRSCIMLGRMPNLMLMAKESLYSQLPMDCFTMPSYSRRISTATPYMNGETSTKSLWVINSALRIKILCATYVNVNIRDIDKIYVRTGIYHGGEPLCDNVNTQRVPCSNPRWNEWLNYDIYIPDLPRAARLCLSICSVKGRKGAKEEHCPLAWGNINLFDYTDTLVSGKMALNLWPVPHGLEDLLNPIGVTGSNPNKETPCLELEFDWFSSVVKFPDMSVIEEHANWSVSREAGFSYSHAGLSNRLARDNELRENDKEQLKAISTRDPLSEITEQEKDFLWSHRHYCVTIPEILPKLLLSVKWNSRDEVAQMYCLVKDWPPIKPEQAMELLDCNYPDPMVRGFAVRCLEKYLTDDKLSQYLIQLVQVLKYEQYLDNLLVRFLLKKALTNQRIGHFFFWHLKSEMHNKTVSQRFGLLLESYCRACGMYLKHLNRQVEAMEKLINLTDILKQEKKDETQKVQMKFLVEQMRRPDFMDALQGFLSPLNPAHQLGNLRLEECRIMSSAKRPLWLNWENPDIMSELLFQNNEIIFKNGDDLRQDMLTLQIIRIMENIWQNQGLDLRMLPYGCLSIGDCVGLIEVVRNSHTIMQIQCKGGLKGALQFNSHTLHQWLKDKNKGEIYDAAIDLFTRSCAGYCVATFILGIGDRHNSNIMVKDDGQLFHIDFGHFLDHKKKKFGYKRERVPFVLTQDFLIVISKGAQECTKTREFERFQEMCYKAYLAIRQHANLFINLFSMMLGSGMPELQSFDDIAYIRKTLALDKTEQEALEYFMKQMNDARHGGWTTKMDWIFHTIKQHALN
Sequence (P27986 whole entry partner): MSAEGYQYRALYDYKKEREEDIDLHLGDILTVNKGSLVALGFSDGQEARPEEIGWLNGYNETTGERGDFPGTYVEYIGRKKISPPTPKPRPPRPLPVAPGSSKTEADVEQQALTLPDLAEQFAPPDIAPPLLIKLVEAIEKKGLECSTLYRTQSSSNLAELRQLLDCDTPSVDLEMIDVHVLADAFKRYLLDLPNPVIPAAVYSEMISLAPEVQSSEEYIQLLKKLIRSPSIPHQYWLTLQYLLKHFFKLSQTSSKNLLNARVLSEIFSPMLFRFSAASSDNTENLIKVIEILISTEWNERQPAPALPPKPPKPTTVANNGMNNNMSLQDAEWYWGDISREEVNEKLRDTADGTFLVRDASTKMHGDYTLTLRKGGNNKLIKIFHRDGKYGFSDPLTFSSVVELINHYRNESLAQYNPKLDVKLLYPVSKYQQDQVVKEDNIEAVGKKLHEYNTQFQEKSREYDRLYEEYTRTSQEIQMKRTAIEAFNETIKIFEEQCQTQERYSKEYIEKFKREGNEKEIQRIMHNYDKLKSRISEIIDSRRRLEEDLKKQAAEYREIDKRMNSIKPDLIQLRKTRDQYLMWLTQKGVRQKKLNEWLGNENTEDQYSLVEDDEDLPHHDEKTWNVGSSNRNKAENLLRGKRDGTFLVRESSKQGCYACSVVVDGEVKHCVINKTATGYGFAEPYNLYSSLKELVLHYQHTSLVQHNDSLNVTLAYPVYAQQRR
pIC50: −log10 of the molar value.

>  <compound>
Cc1cc([C@H](C)Nc2ccccc2CC(=O)O)c2nc(N3CCOCC3)cc(=O)n2c1

>  <pIC50>
< 5.70

$$$$
>  <compound>
Cc1cc([C@@H](C)Nc2ccccc2C(N)=O)c2nc(N3CCOCC3)cc(=O)n2c1

>  <pIC50>
< 5.70

$$$$
>  <compound>
Cc1cc([C@@H](C)Nc2ccccc2C(=O)O)c2nc(N3C[C@H](C)C[C@H](C)C3)cc(=O)n2c1 (single isomer, unassigned)

>  <pIC50>
> 7.00

$$$$
>  <compound>
Cc1cc([C@H](C)Nc2ccccc2C(=O)O)c2nc(N3CCS(=O)(=O)CC3)cc(=O)n2c1

>  <pIC50>
< 5.70

$$$$
>  <compound>
Cc1cc([C@@H](C)N(C)c2ccccc2C(=O)O)c2nc(N3CCOCC3)cc(=O)n2c1

>  <pIC50>
< 5.70

$$$$
>  <compound>
Cc1cc(C(C)Nc2ccccc2C(=O)O)c2nc(C3CCC(NS(C)(=O)=O)CC3)c(C)c(=O)n2c1 (stereo not shown) [Compound 543]

>  <pIC50>
< 5.70

$$$$
>  <compound>
Cc1cc([C@@H](C)Nc2ccccc2C(=O)O)c2nc(-c3ccc(F)cc3)cc(=O)n2c1 (single isomer, unassigned)

>  <pIC50>
> 7.00

$$$$
